Tested on: NCI-H226 lung
Protocol Notes: NCI tumour cell line growth inhibition, 48 h
Where a SMILES comes first, the peptide text is derived from it.
Measurement Label: TGI

Query: TGI; subject: CCOC(=O)C1CCn2c(nc3c2c(=O)n(C)c(=O)n3C)S1 (centres undefined)
> 100 µM

Endpoint output: TGI of `O=[n+]1c2c(n([O-])c3ccccc31)-c1cccc3cccc-2c13` . Value?
> 100 µM

Fill in: TGI of `COc1ccc(-c2cnc3ccnn3c2-c2cc(OC)c(OC)c(OC)c2)cc1` is ___
> 100 µM

Fill in: TGI of CC(C)CC(NC(=O)C(CC(C)C)NC(=O)C(Cc1cnc[nH]1)NC(=O)C(C)NC(=O)C(NC(=O)C(C)NC(=O)C(Cc1c[nH]c2ccccc12)NC(=O)C(CCC(=O)O)NC(=O)C(N)Cc1ccccc1)C(C)C)C(N)=O (centres undefined) (H-FEWAVAHLL-NH2; configuration not given here) is ___
> 12.5 µM

Reference for the values: PubChem BioAssay (NCI)
